- target.desc: IKZF2 (Homo sapiens, UniProt Q96SW2+Q9UKS7)
- Construct: endogenous in cells; host or cells: MOLT4 (CRISPR/Cas9 HiBit knock-in at the IKZF2 locus)
- Sequence (Q9UKS7 whole entry): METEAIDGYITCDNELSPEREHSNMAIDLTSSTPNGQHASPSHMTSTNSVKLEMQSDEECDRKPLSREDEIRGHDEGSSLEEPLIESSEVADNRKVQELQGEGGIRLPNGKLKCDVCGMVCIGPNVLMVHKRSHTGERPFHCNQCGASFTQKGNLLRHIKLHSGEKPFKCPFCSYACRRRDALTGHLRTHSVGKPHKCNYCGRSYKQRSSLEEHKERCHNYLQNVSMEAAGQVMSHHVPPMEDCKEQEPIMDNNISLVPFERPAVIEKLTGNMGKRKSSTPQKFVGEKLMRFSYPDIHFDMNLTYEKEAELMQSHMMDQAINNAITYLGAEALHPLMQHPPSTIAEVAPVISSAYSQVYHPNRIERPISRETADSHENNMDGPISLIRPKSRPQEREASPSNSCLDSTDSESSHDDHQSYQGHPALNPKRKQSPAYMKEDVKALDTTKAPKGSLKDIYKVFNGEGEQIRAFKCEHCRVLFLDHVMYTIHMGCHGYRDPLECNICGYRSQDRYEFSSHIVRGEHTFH
- Sequence (Q96SW2 whole entry): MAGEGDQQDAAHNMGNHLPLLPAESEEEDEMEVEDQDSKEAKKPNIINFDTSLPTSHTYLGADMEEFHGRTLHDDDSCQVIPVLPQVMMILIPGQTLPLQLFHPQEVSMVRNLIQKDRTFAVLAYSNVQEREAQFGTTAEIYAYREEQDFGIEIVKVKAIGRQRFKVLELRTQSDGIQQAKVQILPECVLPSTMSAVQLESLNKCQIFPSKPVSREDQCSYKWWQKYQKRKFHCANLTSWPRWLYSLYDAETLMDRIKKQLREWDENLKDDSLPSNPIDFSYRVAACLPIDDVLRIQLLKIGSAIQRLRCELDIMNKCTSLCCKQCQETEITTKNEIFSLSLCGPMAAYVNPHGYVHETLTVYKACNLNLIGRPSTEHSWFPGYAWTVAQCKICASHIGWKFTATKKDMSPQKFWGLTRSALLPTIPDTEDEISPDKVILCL
- Sequence (Q16531 whole entry partner): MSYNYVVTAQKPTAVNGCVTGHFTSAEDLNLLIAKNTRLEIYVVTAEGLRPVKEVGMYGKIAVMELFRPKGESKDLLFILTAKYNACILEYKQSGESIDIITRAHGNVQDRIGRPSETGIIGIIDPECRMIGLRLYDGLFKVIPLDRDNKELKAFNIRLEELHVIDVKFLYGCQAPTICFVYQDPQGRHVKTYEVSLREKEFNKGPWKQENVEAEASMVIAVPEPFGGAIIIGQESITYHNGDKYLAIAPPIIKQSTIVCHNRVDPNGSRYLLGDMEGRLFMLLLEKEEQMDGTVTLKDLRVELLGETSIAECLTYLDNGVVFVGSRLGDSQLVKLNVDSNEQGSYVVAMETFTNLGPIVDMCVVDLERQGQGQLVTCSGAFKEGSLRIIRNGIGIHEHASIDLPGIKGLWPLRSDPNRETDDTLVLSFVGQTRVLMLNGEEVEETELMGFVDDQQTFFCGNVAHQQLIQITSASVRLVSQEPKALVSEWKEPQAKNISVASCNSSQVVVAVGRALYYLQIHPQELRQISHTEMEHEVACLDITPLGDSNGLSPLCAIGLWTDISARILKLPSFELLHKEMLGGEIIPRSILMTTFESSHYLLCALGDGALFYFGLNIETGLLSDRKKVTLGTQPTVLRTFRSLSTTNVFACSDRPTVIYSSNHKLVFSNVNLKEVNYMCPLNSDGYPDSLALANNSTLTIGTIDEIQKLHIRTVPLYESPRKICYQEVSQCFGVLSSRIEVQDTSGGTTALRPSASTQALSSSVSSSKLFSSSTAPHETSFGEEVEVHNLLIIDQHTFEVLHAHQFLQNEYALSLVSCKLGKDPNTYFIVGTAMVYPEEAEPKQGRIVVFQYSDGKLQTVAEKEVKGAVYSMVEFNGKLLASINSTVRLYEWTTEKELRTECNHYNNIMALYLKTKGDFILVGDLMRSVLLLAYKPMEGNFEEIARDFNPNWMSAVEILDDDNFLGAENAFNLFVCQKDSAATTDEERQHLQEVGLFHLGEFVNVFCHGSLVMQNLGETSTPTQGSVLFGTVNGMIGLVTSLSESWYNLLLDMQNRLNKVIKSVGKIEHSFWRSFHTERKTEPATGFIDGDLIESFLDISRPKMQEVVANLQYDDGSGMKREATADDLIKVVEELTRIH
- test: MOLT4 IKZF2 HiBit assay
- Format: cell-based
- condition.summary: MOLT4 IKZF2 HiBit cells, 6 hours incubation, 10-point dose response from 30 μM
Structures can show the parent of a compound that is named as a salt.
parameter: DC50 (nM)
Field: numeric (nM). Do not append units.

Solved entries (count: 3):
May I ask what DC50 has been recorded for COc1ccc(CN2CCC(O)(c3ccc4c(c3)C(=O)N(C3CCC(=O)NC3=O)C4=O)CC2)cn1 (stereo not shown) [Compound 72, HCl salt] ?
1

May I ask what DC50 has been recorded for O=C1CCC(N2C(=O)c3ccc(C4(O)CCN(Cc5ccn(-c6ccccc6)n5)CC4)cc3C2=O)C(=O)N1 (stereo not shown) [Compound 94, HCl salt] ?
8

May I ask what DC50 has been recorded for O=C1CCC(N2C(=O)c3ccc(C4(O)CCN(Cc5ccccc5)CC4)c(F)c3C2=O)C(=O)N1 (stereo not shown) [Compound 128, HCl salt] ?
2

Continuing:
May I ask what DC50 has been recorded for CC1CC(O)(c2ccc3c(c2)C(=O)N(C2CCC(=O)NC2=O)C3=O)CCN1Cc1ccccc1 (stereo not shown) ?
12
